The measurements presented in this section are drawn from ChEMBL document CHEMBL5143619.

Tested on: Candida albicans
protocolDescription: Antifungal activity against Candida albicans assessed as fungal growth inhibition incubated for 5 hrs under shaking condition by resazurin dye based assay
Format: functional, organism-based
pIC50: −log10 of the molar value.
parameterMeasured: pIC50

>>> observedresult("NYSTATIN")
5.89

---

protocolDescription: Selectivity index, ratio of IC50 for human HaCaT cells to IC50 for antifungal activity against Trichophyton rubrum
Type: toxicity
conditionSet: read-out: Ratio IC50
parameterMeasured: selectivity ratio

>>> observedresult("COc1ccc(-c2coc3c(CC=C(C)C)c(O)cc(O)c3c2=O)cc1O")
5.7
